- Test system: Leishmania donovani
- testName: Antileishmanial activity against Leishmania donovani intracellular amastigotes assessed as parasite growth inhibition
- Assay type: functional, organism-based
quantity: IC50 (µM)
Record the value in µM, omitting the unit from your answer.

**Q:** API: value(readout= IC50, system= Leishmania donovani, query= COc1cc(C)cc2c1C(=O)C1OC1(c1c(C)cc3c(c1OC)C(=O)C1OC1C3=O)C2=O (stereo unspecified) )
**A:** 20.7

====

- testName: Inhibition of recombinant rat liver arginase
quantity: IC50 (nM)
Answer in nM, number only, no unit symbol.

Example compounds with recorded IC50:
>>> df
                                   compound  readoutunit  quantitativeresult
0     O=C(O)c1cc(O)c(O)c(O)c1 [GALLIC ACID]           nM                3800
1  O=C(O[C@@H]1Cc2c(O)cc(O)cc2O[C@@H]1c1cc(O)c(O)c(O)c1)c1cc(O)c(O)c(O)c1 [EPIGALOCATECHIN GALLATE]           nM                3800
2  Oc1cc(O)c2c(c1)O[C@H](c1ccc(O)c(O)c1)[C@@H](O)C2 [CIANIDANOL]           nM                1800

Please find the next compound below.
**Q:** Recorded IC50 for Oc1cc(O)c2c(c1)O[C@@H](c1ccc(O)c(O)c1)[C@H](O)C2 [(-)-CATECHIN] , please?
**A:** 770

====

Values of IC50 reported for UniProt:O96394 appear below.
Give the value in µM but do not write µM after it.

// worked examples, IC50 included
>>> df
                                   compound  readoutunit  quantitativeresult
0  O=c1c(O)c(-c2ccc(O)c(O)c2)oc2cc(O)cc(O)c12           µM                 4.3
1   O=c1cc(-c2ccc(O)c(O)c2)oc2cc(O)cc(O)c12           µM                   9
2  O=c1cc(-c2ccccc2)oc2c(O)c(O)ccc12 [7,8-DIHYDROXYFLAVONE]           µM                  12

Switching to the query record.
**Q:** Dear colleague, I am looking for the recorded IC50 of the following compound: O=C(/C=C/c1ccc(O)c(O)c1)O[C@@H](Cc1ccc(O)c(O)c1)C(=O)O
**A:** 28
